- TARGET OR TEST SYSTEM: ZRANB2 (UniProt O95218)
- Sequence (O95218 whole entry, looked up): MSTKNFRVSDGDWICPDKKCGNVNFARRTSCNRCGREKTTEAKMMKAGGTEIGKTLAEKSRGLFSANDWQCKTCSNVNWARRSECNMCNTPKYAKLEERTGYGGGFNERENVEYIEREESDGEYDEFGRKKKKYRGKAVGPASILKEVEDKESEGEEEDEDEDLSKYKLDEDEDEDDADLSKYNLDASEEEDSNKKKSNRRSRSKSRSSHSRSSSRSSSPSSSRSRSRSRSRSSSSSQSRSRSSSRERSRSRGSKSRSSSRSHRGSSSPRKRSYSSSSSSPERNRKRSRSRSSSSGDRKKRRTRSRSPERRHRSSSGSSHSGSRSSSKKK
- EXPERIMENTAL PROTOCOL: log2 fold change, soluble protein after heating vs DMSO (PISA); higher = thermal stabilisation; K562 cells, 10 uM, 30 min; active = over 0.2 and 3.5 SD of the protein, either way, in both replicates (recomputed)
About 7,900 targets were measured; listed, in parts, are those with a hit and a random draw of the rest. About 0.6% of all pairs of compound and target were hits.
READOUT KIND: log2 fold change

- MOLECULE: "O=C(O)c1ccc2c(c1)nc(Nc1cccc(Cl)c1)c1ccncc12"
  DATA VALUE: 0.018
- MOLECULE: "CC(C)N(C[C@H]1O[C@@H](n2cnc3c(N)ncnc32)[C@H](O)[C@@H]1O)[C@H]1C[C@@H](CCc2nc3cc(C(C)(C)C)ccc3[nH]2)C1"
  DATA VALUE: 0.012
- MOLECULE: "Cc1cccc(-c2[nH]c(C(C)(C)C)nc2-c2ccc3nccnc3c2)n1"
  DATA VALUE: -0.05
- MOLECULE: "CC(C)(O)CC(=O)NCCn1ccc2ncnc(Nc3ccc(Oc4cccc(C(F)(F)F)c4)c(Cl)c3)c21"
  DATA VALUE: -0.012
- MOLECULE: "C/C(=N\\NC(=O)c1cccc(S(=O)(=O)N2CCOCC2)c1)c1cc(Cl)ccc1O"
  DATA VALUE: -0.067
- MOLECULE: "NC(=O)c1cnc(N[C@@H]2CCCC[C@@H]2N)nc1Nc1cccc(-n2nccn2)c1"
  DATA VALUE: 0.002
- MOLECULE: "CC1=C(C(=O)Nc2cc3cn[nH]c3cc2F)C(c2ccc(C(F)(F)F)cc2)CC(=O)N1 (configuration not stated)"
  DATA VALUE: 0.025
- MOLECULE: "O=C1NC(=NCc2cccs2)S/C1=C\\c1ccc2ncccc2c1"
  DATA VALUE: -0.059
- MOLECULE: "O=C1NC(=O)/C(=C\\c2ccc3nccnc3c2)S1"
  DATA VALUE: 0.051
- MOLECULE: "CCN(CC)Cc1ccc2cc(COC(=O)Nc3ccc(C(=O)NO)cc3)ccc2c1"
  DATA VALUE: -0.029
- MOLECULE: "COc1cc(C(=O)O)ccc1NC(=O)[C@@H]1N[C@@H](CC(C)(C)C)[C@](C#N)(c2ccc(Cl)cc2F)[C@H]1c1cccc(Cl)c1F"
  DATA VALUE: 0.024
- MOLECULE: "CN1CCN(c2nc(C3=C(c4c[nH]c5ccccc45)C(=O)NC3=O)c3ccccc3n2)CC1"
  DATA VALUE: -0.027
- MOLECULE: "C[C@@H]1COCCN1c1cc(C2(S(C)(=O)=O)CC2)nc(-c2cccc3[nH]ccc23)n1"
  DATA VALUE: 0.001
- MOLECULE: "COC(=O)N[C@@H](C)CNc1nccc(-c2cn(C(C)C)nc2-c2cc(Cl)cc(NS(C)(=O)=O)c2F)n1"
  DATA VALUE: -0.066
- MOLECULE: "C[C@@H](Oc1cc(-c2cnn(C3CCNCC3)c2)cnc1N)c1c(Cl)ccc(F)c1Cl"
  DATA VALUE: 0.014
- MOLECULE: "CS(=O)(=O)N1CCN(Cc2cc3nc(-c4cccc5[nH]ncc45)nc(N4CCOCC4)c3s2)CC1"
  DATA VALUE: 0.01
- MOLECULE: "Cn1c2cc(S(C)=O)sc2c2cnn(Cc3cccc(N)c3)c(=O)c21 (configuration not stated)"
  DATA VALUE: -0.006
